Tested on: Escherichia coli TOP10
Experiment: shrunken log2 fold change of peptide-encoding DNA abundance (4.5 h post-induction vs induction); higher = less antimicrobial activity (less host growth inhibition)
Details: time post-induction: 4.5 h; library: site-saturation at positions 5, 18, 19, 20
Is shrunken log2 fold change at least 0.02? Then MET. If not, NOT MET.

Worked cases, answers included:
RRIRQRPPRLPRPRPRPSQHPRP : NOT MET
RRIRCRPPRLPRPRPRPTTSPRP : NOT MET
RRIRARPPRLPRPRPRPTAGPRP : MET

Tell me whether shrunken log2 fold change is at least 0.02 here: `RRIRHRPPRLPRPRPRPLFMPRP`
NOT MET

Could you please find out whether `RRIRGRPPRLPRPRPRPCYLPRP` has shrunken log2 fold change that meets 0.02 or exceeds it?
NOT MET

Has `RRIRYRPPRLPRPRPRPGYCPRP` a recorded shrunken log2 fold change greater than or equal to 0.02?
NOT MET

Does the sequence `RRIRKRPPRLPRPRPRPMQIPRP` have recorded shrunken log2 fold change that is 0.02 or more?
NOT MET

Dear colleague, could you confirm whether `RRIRVRPPRLPRPRPRPEFSPRP` has shrunken log2 fold change at or above 0.02?
NOT MET

Decide: is the reported value of shrunken log2 fold change for `RRIRTRPPRLPRPRPRPRNEPRP` equal to or greater than 0.02?
NOT MET

Quick check: does `RRIRKRPPRLPRPRPRPGWPPRP` have shrunken log2 fold change greater than or equal to 0.02?
MET

Could you tell me if the measured shrunken log2 fold change of `RRIRNRPPRLPRPRPRPFWTPRP` reaches 0.02 or more?
NOT MET

Kindly determine if shrunken log2 fold change recorded for `RRIRGRPPRLPRPRPRPFRPPRP` is above or exactly 0.02.
MET

Confirm if shrunken log2 fold change reported for the sequence `RRIRGRPPRLPRPRPRPAYDPRP` is 0.02 or above.
MET

// inclusive: shrunken log2 fold change at least 0.02? input: `RRIRPRPPRLPRPRPRPCELPRP`
NOT MET

Is reported shrunken log2 fold change greater than or equal to 0.02 here: `RRIRMRPPRLPRPRPRPEPCPRP`
MET

====

Tested on: Escherichia coli TOP10
Assay: shrunken log2 fold change of peptide-encoding DNA abundance (4.5 h post-induction vs induction); higher = less antimicrobial activity (less host growth inhibition)
Details: time post-induction: 4.5 h; library: site-saturation at positions 5, 18, 19, 20
The recorded shrunken log2 fold change of each item maps onto one of these classes: lowest = under -0.1, middle = from -0.1 up to 0.04, highest = 0.04 and over

These recorded examples may help you get a feel for the data.
RRIRIRPPRLPRPRPRPMDQPRP : middle
RRIRKRPPRLPRPRPRPIINPRP : highest

In the following, a different sequence is considered.
Which shrunken log2 fold change band matches `RRIRARPPRLPRPRPRPLNIPRP` ?
highest

====

System: Escherichia coli TOP10;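 also: peptides expressed intracellularly from a pBAD plasmid library in pooled LB shake-flask culture, induced with 0.3% L-arabinose, DNA abundance read by NGS, three biological replicates, DESeq2 with apeglm shrinkage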
Experiment: shrunken log2 fold change of peptide-encoding DNA abundance (4.5 h post-induction vs induction); higher = less antimicrobial activity (less host growth inhibition)
Conditions: time post-induction: 4.5 h; library: site-saturation at positions 5, 18, 19, 20
value-kind: shrunken log2 fold change
One number for each entry.

Below are worked cases with known answers.
RRIRGRPPRLPRPRPRPLFSPRP : 0.113
RRIRGRPPRLPRPRPRPHLSPRP : 0.283

Provide the reported shrunken log2 fold change of each entry below, same order.
1. RRIRMRPPRLPRPRPRPKVAPRP
2. RRIRKRPPRLPRPRPRPILIPRP
3. RRIRIRPPRLPRPRPRPKDQPRP
4. RRIRKRPPRLPRPRPRPMWFPRP
5. RRIRDRPPRLPRPRPRPGQMPRP

-0.0166
0.0193
-0.196
0.0615
-0.0138
